- test-details: in vitro
- reported-conditions: human, liver microsomes
Kindly supply the reported microsomal CLint values for the records listed here.

Please give the documented microsomal CLint of "COc1ccc2nc(C)cc(OCC(=O)NCc3ccccc3)c2c1"
> 150 µL/min/mg

Give the reported value of microsomal CLint for this record: "Cc1c(Sc2ccc(Cl)cc2)c2cc(Cl)ccc2n1CC(=O)O"
< 3 µL/min/mg

Give the value of microsomal CLint reported for the following: O=C(O)C(c1ccccc1)N1CCCC(CN2CCC(Oc3ccc(Cl)c(Cl)c3)CC2)C1 (centres undefined)
< 3 µL/min/mg

Fill in microsomal CLint for record "Cc1cnc(Oc2ccc(-n3ccnc3)cc2)nc1Oc1ccc2c(c1)OCO2"
< 3 µL/min/mg

* * *

- test-details: physchem
- reported-conditions: octan-1-ol/water, pH 7.4, LogD7.4
readout-kind: logD
Reply briefly: the number, and no unit.

Look up logD of CC(C)C(NC(=O)Cn1c(-c2ccccc2)ccc(NC(=O)NCc2cc[n+]([O-])cc2)c1=O)C(=O)C(F)(F)F (centres undefined) and report it.
1.13

For the compound "C[C@@H]1CN(C(=O)OC(C)(C)C)CCN1c1ncc(OCc2ccc(S(C)(=O)=O)cn2)cn1" , give its reported logD.
3

Look up logD of "CC(C)Oc1cc(-n2cnc3cnc(N[C@@H](C)c4ncc(F)cn4)nc32)n[nH]1" and report it.
2.41

Return logD (reported value) for this compound: CN1Cc2c(N)cccc2C(c2ccccc2)C1 (centres undefined) [NOMIFENSINE]
2.08

* * *

- test-details: in vitro
- reported-conditions: human, liver microsomes
Class Yes: microsomal CLint at least 30 µL/min/mg. Class No: microsomal CLint below 30 µL/min/mg.

Hi, just wondering whether "Cc1ccc2c(c1)c(-c1ccnc3c(F)cccc13)c(C)n2CC(=O)O" shows microsomal CLint of 30 µL/min/mg or higher.
No

Reported microsomal CLint at or above 30 µL/min/mg? "C[C@H]1CN(Cc2cc(Cl)ccc2OCC(=O)O)CCN1C(=O)Cc1ccc(Cl)cc1"
No

Is the recorded value of microsomal CLint equal to or greater than 30 µL/min/mg for this molecule? "Cc1ccc(CCOCCNS(=O)(=O)CCCNCCc2ccc(O)c3nc(O)sc23)cc1"
Yes

Does the molecule "Nc1nc2ccccc2[nH]1" have recorded microsomal CLint that is 30 µL/min/mg or more?
No

Answer whether microsomal CLint of "C[C@@H](O)[C@H]1C(=O)N2C(C(=O)OCOC(=O)C(C)(C)C)=C(SC3CN(C4=NCCS4)C3)[C@H](C)[C@H]12" is greater than or equal to 30 µL/min/mg.
Yes

Determine whether this molecule has microsomal CLint no lower than 30 µL/min/mg: "O=C(Cc1ccc(Cl)c(C(F)(F)F)c1)Nc1cccc2c(=O)n(CCO)ccc12"
No

Please check the record "NC(=O)Nc1cc(-c2ccccc2)sc1C(N)=O" and state if its microsomal CLint is at or above 30 µL/min/mg.
No

I'd appreciate it if you could say whether "O=C(NCc1ccccc1Cl)c1cccnc1Oc1ccccc1" has microsomal CLint at least equal to 30 µL/min/mg.
Yes

Quick check, microsomal CLint >= 30 µL/min/mg? "CCN(C(=O)c1cnn(-c2ccccc2)c1NS(=O)(=O)c1ccc(-c2cnco2)cc1)C1CCCCC1"
Yes

Check the entry "O=CN(O)CCCP(=O)(O)O" : does microsomal CLint equal or exceed 30 µL/min/mg?
No

Has "COCCNc1nc(N)c2nc(O)n(Cc3ccccc3)c2n1" a recorded microsomal CLint greater than or equal to 30 µL/min/mg?
No

Record "Cc1ccc2c(c1)c(-c1ccnc3ccc(C(F)(F)F)cc13)c(C)n2CC(=O)O" ; criterion: microsomal CLint no lower than 30 µL/min/mg. Met?
No

Reported microsomal CLint reaches at least 30 µL/min/mg for "Cc1ccc(C(=O)Nc2ccon2)cc1NC(=O)c1cnn(-c2ccccc2F)c1N" ?
No

* * *

Give measured solubility thermodynamic for each item. Keep answers brief.
- test-details: physchem
- reported-conditions: pH 7.4 buffer

Please indicate solubility thermodynamic recorded for "O=C(O)c1cc2ccccc2n1Cc1cccc(Cl)c1"
1200 µM

Give a short answer stating reported solubility thermodynamic for "COc1ccc(NC(=O)c2cc(C)no2)cc1" .
158 µM

Annotate the molecule "CC[C@@H]1COCCN1c1cc(C2(S(C)(=O)=O)CC2)nc(-c2cccc3[nH]ccc23)n1" with its measured solubility thermodynamic.
79.4 µM

# return recorded solubility thermodynamic for entry "CC(C)Cn1c(=O)n(C)c(=O)c2c(C(=O)N3CC[C@@H](O)C3)c(Cc3ccnc4ccc(F)cc34)sc21"
871 µM

Given the molecule "CON(C)C(=O)c1c(Cn2c(C)nc(Cl)c2Cl)sc2c1c(=O)n(C)c(=O)n2CC(C)C" , write its reported solubility thermodynamic.
513 µM

* * *

- test-details: physchem
- reported-conditions: octan-1-ol/water, pH 7.4, LogD7.4
With a cut-off of 3, any logD strictly below it is called YES; any logD meeting it or above is called NO.

Criterion: logD strictly below 3. Is it met by CCC(c1nc2ccsc2c(=O)n1Cc1ccccc1)N(CCCN)C(=O)c1ccc(C)nc1 (stereo not drawn) ?
YES

Bench note: check whether "N=C(N)Nc1ccc(C(=O)Oc2ccccc2)cc1" shows logD below 3
YES

Is the reported logD for "O=C(O)CCCS(=O)(=O)c1cccc(C(=O)N2CCC(N3CCC(Oc4ccc(Cl)c(Cl)c4)CC3)CC2)c1" strictly below 3?
YES

Determine if CC(C)C(NC(=O)Cn1c(-c2ccccc2)ccc(NC(=O)OCc2ccccn2)c1=O)C(=O)C(F)(F)F (stereo not drawn) shows logD strictly lower than 3.
YES

Answer whether the molecule "CCCN(CCO)CCCOc1ccc2c(Nc3cc(CC(=O)Nc4cccc(F)c4F)[nH]n3)ncnc2c1" has logD strictly less than 3
YES

Bench note: check whether "COc1cc2ncnc(Nc3cc(NC(=O)c4ccnc(N5CCOCC5)c4)ccc3C)c2cc1OCCN1CCOCC1" shows logD below 3
NO

In the record for "Cc1ccc(C(=O)N(CCCN)Cc2nc3cc(Cl)ccc3c(=O)n2Cc2ccccc2)cc1" , is logD less than 3?
YES

Identify whether the molecule "c1ccc(-c2c[nH]c(-c3ccccc3)n2)cc1" records logD below 3.
NO

Report whether reported logD is lower than 3 (strictly) for "O=C(NCC1CCCCCC1)c1cc(-c2cccnc2N2CCC(C(=O)O)CC2)ccc1Cl"
YES

In plain terms, does "COc1ccc2c(C)cc(N[C@H]3CCC[C@H](NCc4cccc(OC(F)(F)F)c4)C3)nc2c1" come in under 3 for logD?
NO

Determine whether this molecule shows logD lower than 3 (ties excluded): "Cc1nsc(C)c1CCC1CCN(S(=O)(=O)CC2(N(O)C=O)CCOCC2)CC1"
YES

Bench note: check whether "O=c1c(-c2ccc(O)c(O)c2)coc2cc(O)ccc12" shows logD below 3
YES

Is it true that logD reported for O=C1CN(C(=O)c2ccccc2)C(c2ccccc2)c2cc(Cl)ccc2N1 (stereo not drawn) is less than 3?
NO

Dear reviewer, please state whether "CC(C)Cn1c(=O)n(C)c(=O)c2c(C(=O)N3CC(C)(O)C3)c(Cc3ccccc3C(F)(F)F)sc21" has logD strictly beneath 3.
NO

Is the reported logD for "CCOc1ccc2nc(N)sc2c1" strictly below 3?
YES

In plain terms, does "Cc1ccnc(NCc2ccccc2O)c1" come in under 3 for logD?
NO

# TODO verify logD < 3 strictly for this molecule: "CCn1c(SCC(=O)Nc2c(C#N)cnn2-c2ccccc2)nnc1-c1cccs1"
YES

Please indicate whether the reported logD of Cc1ccc(S(=O)(=O)Nc2c(C(=O)N[C@@H](C)C(C)(C)C)c(C)nn2C2CCOC2)cc1 (stereo partly drawn) is strictly below 3.
YES

logD strictly < 3 for this molecule? "CC(C)C[C@H](CO)Nc1nc(SCc2ccncc2)nc2nc(N)sc12"
YES

Field: below-cutoff. Rule: recorded logD strictly less than 3. Subject: "c1ccc(-c2cn3ccccc3n2)cc1"
YES

Please indicate whether the reported logD of "COc1cc2ncnc(Nc3cccc(Cl)c3F)c2cc1CN(C)[C@@H](C)C(N)=O" is strictly below 3.
NO

is_below(logD, 3) for "Cc1cc2nc(NC(=N)N)nc(C)c2cc1C" ?
YES

Does this molecule meet the criterion logD < 3? "Cc1ncc(-c2nc(Nc3ccc(C(=O)N4CC[C@@H](N(C)C)C4)cc3)ncc2F)n1C(C)C"
YES

Below 3 on logD? Entry "O=C(Nc1nnc(C(=O)Nc2ccc(N3CCOCC3)cc2)o1)c1ccccc1"
YES

is_below(logD, 3) for "CCN(CC)S(=O)(=O)c1ccc(-c2nnc(SCC(=O)N3CCc4ccccc43)o2)cc1" ?
NO

Please determine if "Cc1cnc(Oc2ccc(-n3ccnc3)cc2)nc1Oc1ccc2c(c1)OCO2" is below 3 in terms of logD.
NO

Hi there! Is logD for "O=C(CN1CCOCC1)Nc1ccc(-c2cccc3c(=O)cc(N4CCOCC4)oc23)cc1O" below 3, do you know?
YES
